Assay Readout: melting point

Reported melting point for NC(=O)c1cc(-c2[nH]c3cccnc3c2-c2ccc(F)cc2)ccn1 was 157 to 158 °C

Reported melting point for COCC(C)Nc1nccc(-c2c(-c3ccc(F)cc3)c3ncccc3n2COC)n1 (centres unmarked) was 151 to 152 °C

Reported melting point for Cc1cnc2c(-c3ccc(F)cc3)c(-c3ccncc3)[nH]c2c1 was 127 to 128 °C

Reported melting point for COCn1c(-c2ccncc2)c(-c2ccc(F)cc2)c2ncc(C)cc21 was 208 to 209 °C

Reported melting point for FCCn1c(-c2ccnc(Nc3cccc(F)c3)c2)c(-c2ccc(F)cc2)c2ncccc21 was 255 to 256 °C

Reported melting point for COC(=O)CC(=O)Nc1cc(-c2[nH]c3cc(C)cnc3c2-c2ccc(F)cc2)ccn1 was 237 to 238 °C

Reported melting point for Fc1ccc(-c2c(-c3ccncn3)[nH]c3cccnc23)cc1 was 169 to 170 °C

Reported melting point for COCOn1c(-c2ccncc2)c(-c2ccc(F)cc2)c2ncccc21 was 169 to 170 °C
